This collection of values is drawn from patent US12281225B2.

test: Analysis of active substance: preservative concentration before and after storage in VI-containing polymer solution; type: physicochemical; settings: in Polymer P7; storage 28 d at 40° C.
Outcome label depends on active-substance concentration, 28 d, 40° C. relative to 200 ppm: at/above gives satisfied, below gives not satisfied.

Please review the following examples before continuing.
INSERT INTO measurements (molecule, cat) VALUES
  ('Cn1sccc1=O', 'not satisfied'),
  ('CCCCCCCCn1sc(Cl)c(Cl)c1=O', 'not satisfied'),
  ('CCCCNC(=O)OCC#CI [Iodopropynyl butyl carbamate, iodopropynyl butyl carbamate]', 'not satisfied'),
  ('Cn1sc(Cl)cc1=O', 'not satisfied'),
  ('CCCCCCCCCC[N+](C)(C)CCCCCCCCCC.[Cl-] [DDAC, didecyldimethylammonium chloride]', 'satisfied');

Query block: active-substance concentration, 28 d, 40° C. >= 200 ppm for O=c1[nH]sc2ccccc12 ?
Result block: not satisfied

Query block: active-substance concentration, 28 d, 40° C. >= 200 ppm for CCCCCCCCn1sccc1=O ?
Result block: not satisfied

Query block: active-substance concentration, 28 d, 40° C. >= 200 ppm for CCCCCCCCCCCCCCCC[N+](C)(C)Cc1ccccc1.[Cl-] [Polymer 16-BAC, cetylalkonium chloride] ?
Result block: satisfied

###

assay: Iodine color number according to DIN 6162:2014-09; assay type: physicochemical; details: Polymer P2 with stabilizer; start
Here, each record is paired with measured Iodine color number, start data.
Give the figure only, with no unit attached.

Here is how some molecules turned out for Iodine color number, start.
INSERT INTO assay_data (molecule, value_measured) VALUES
  ('CCCCCCCCn1sc(Cl)c(Cl)c1=O [DCOIT, dichloroctylisothiazolinone]', 3.1),
  ('CCCCCCCCCCCCCCCC[N+](C)(C)Cc1ccccc1.[Cl-] [Polymer 16-BAC, cetylalkonium chloride]', 3.0),
  ('CCCCCCCCCC[N+](C)(C)CCCCCCCCCC.[Cl-] [DDAC, didecyldimethylammonium chloride]', 2.9);

Query block: Name the recorded Iodine color number, start of the item CCCCNC(=O)OCC#CI [Iodopropynyl butyl carbamate, iodopropynyl butyl carbamate] in your answer.
Result block: 2.8

Query block: Name the recorded Iodine color number, start of the item CCCCCCCCn1sccc1=O [OIT, octylisothiazolinone] in your answer.
Result block: 3.0

Query block: Name the recorded Iodine color number, start of the item O=c1[nH]sc2ccccc12 [BIT, 1,2-benzisothiazolin-3-one] in your answer.
Result block: 2.9

Query block: Name the recorded Iodine color number, start of the item Cn1sc(Cl)cc1=O [CMIT, 5-chloro-N-methylisothiazolin-3-one] in your answer.
Result block: 3.1

Query block: Name the recorded Iodine color number, start of the item Cn1sccc1=O [MIT, methyl-4-isothiazolin-3-one] in your answer.
Result block: 2.7

###

test: Iodine color number according to DIN 6162:2014-09; type: physicochemical; details: Polymer P6 with stabilizer; 60 d 40° C.
MEASUREMENT_LABEL: Iodine color number, 60 d 40° C.
Give the figure only, with no unit attached.

Here is how some compounds turned out for Iodine color number, 60 d 40° C..
INSERT INTO assay_data (compound, value_measured) VALUES
  ('CCCCCCCCCC[N+](C)(C)CCCCCCCCCC.[Cl-] [DDAC, didecyldimethylammonium chloride]', 3.3),
  ('Cn1sccc1=O [MIT, methyl-4-isothiazolin-3-one]', 8.5),
  ('CCCCNC(=O)OCC#CI [Iodopropynyl butyl carbamate, iodopropynyl butyl carbamate]', 11.0),
  ('Cn1sc(Cl)cc1=O [CMIT, 5-chloro-N-methylisothiazolin-3-one]', 9.1);

Query block: Name the recorded Iodine color number, 60 d 40° C. of the item O=c1[nH]sc2ccccc12 [BIT, 1,2-benzisothiazolin-3-one] in your answer.
Result block: 10.0

Query block: Name the recorded Iodine color number, 60 d 40° C. of the item CCCCCCCCCCCCCCCC[N+](C)(C)Cc1ccccc1.[Cl-] [Polymer 16-BAC, cetylalkonium chloride] in your answer.
Result block: 3.5

Query block: Name the recorded Iodine color number, 60 d 40° C. of the item CCCCCCCCn1sccc1=O [OIT, octylisothiazolinone] in your answer.
Result block: 9.7

Query block: Name the recorded Iodine color number, 60 d 40° C. of the item CCCCCCCCn1sc(Cl)c(Cl)c1=O [DCOIT, dichloroctylisothiazolinone] in your answer.
Result block: 8.4
